Test system: KB
Experiment: Cytotoxicity against human KB cells by MTT assay
Type: functional, cell-based
Let's look at some compounds and their measured IC50.
measuredMetric: IC50 (µg/mL)

compound="CC(=O)O[C@@]12CO[C@@H]1C[C@H](O)[C@@]1(C)C(=O)[C@H](O)C3=C(C)[C@@H](OC(=O)[C@H](OC(=O)CC(O)C(=O)O)[C@@H](NC(=O)OC(C)(C)C)c4ccccc4)C[C@@](O)([C@@H](OC(=O)c4ccccc4)[C@H]21)C3(C)C (stereo partly specified)" measuredmetric=IC50 valuerelationsign== valueobserved=3.5
compound=CC(=O)O[C@@]12CO[C@@H]1C[C@H](O)[C@@]1(C)C(=O)[C@H](O)C3=C(C)[C@@H](OC(=O)[C@H](OC(=O)C[C@H](O)C(=O)O)[C@@H](NC(=O)OC(C)(C)C)c4ccccc4)C[C@@](O)([C@@H](OC(=O)c4ccccc4)[C@H]21)C3(C)C measuredmetric=IC50 valuerelationsign=> valueobserved=50
compound=CC(=O)O[C@@]12CO[C@@H]1C[C@H](O)[C@@]1(C)C(=O)[C@H](O)C3=C(C)[C@@H](OC(=O)[C@H](OC(=O)C[C@H](O)C(=O)[O-])[C@@H](NC(=O)OC(C)(C)C)c4ccccc4)C[C@@](O)([C@@H](OC(=O)c4ccccc4)[C@H]21)C3(C)C.[Na+] measuredmetric=IC50 valuerelationsign=> valueobserved=50
compound="CC(=O)O[C@@]12CO[C@@H]1C[C@H](O)[C@@]1(C)C(=O)[C@H](O)C3=C(C)[C@@H](OC(=O)[C@H](O)[C@@H](NC(=O)OC(C)(C)C)c4ccccc4)C[C@@](O)([C@@H](OC(=O)c4ccccc4)[C@H]21)C3(C)C.O.O.O [DOCETAXEL]" measuredmetric=IC50 valuerelationsign== valueobserved=11.6
compound="CC(=O)O[C@@]12CO[C@@H]1C[C@H](O)[C@@]1(C)C(=O)[C@H](O)C3=C(C)[C@@H](OC(=O)[C@H](OC(=O)CC(O)C(=O)[O-])[C@@H](NC(=O)OC(C)(C)C)c4ccccc4)C[C@@](O)([C@@H](OC(=O)c4ccccc4)[C@H]21)C3(C)C.[Na+] (mixture of isomers)" measuredmetric=IC50 valuerelationsign== valueobserved=0.45
compound=CC(=O)O[C@@]12CO[C@@H]1C[C@H](O)[C@@]1(C)C(=O)[C@H](O)C3=C(C)[C@@H](OC(=O)[C@H](OC(=O)C[C@@H](O)C(=O)O)[C@@H](NC(=O)OC(C)(C)C)c4ccccc4)C[C@@](O)([C@@H](OC(=O)c4ccccc4)[C@H]21)C3(C)C measuredmetric=IC50 valuerelationsign=> valueobserved=50

Value source: ChEMBL document CHEMBL1139757
